# Test system: RPMI-8226 leukemia
# Procedure details: NCI-60 one-dose screen, 48 h (100 = growth as untreated, 0 = no growth, -100 = all killed)
# Test conditions: 10 µM unless noted
The panel holds about 83,000 compounds, 20% with a hit somewhere; the sample as a whole holds those more often. The source made the active and inactive calls. The calls were made as follows: active = growth percent below 10; inactive = the rest.

Compound: C#CCN(C)CCCOc1ccc(NCc2ccc(C(=O)NO)cc2)cc1Cl
growth: 9.94% (active)
--
Compound: O=C1[C@@H]2Cc3c([nH]c4ccccc34)[C@@H](c3ccc(Cl)cc3)N2C(=O)CN1C1CCN(Cc2c(F)cccc2F)CC1
growth: 12.5% (inactive)
--
Compound: Cc1ccc(-c2csc(N/N=C/c3cccs3)n2)cc1
growth: 86.5% (inactive)
--
Compound: Cc1[nH]c(C(=O)Nc2ccc(C(=O)NCC3CCNCC3)cc2OC(C)C)c(Cl)c1Cl
growth: 42.3% (inactive)
--
Compound: COc1cc(C(=O)c2cc(C(C)=O)c3cccc(C)n23)cc(OC)c1OC
growth: 51.2% (inactive)
--
Compound: COc1cc(/C=N\NC(=O)c2ccc3nc(-c4ccc(Br)cc4)[nH]c3c2)cc(OC)c1OC
growth: 10.7% (inactive)
--
Compound: COc1ccc(C(=O)c2c(N)c(C#N)cn2-c2ccc(Cl)cc2Cl)cc1
growth: 101% (inactive)
--
Compound: CCc1cccc2c3c(sc12)C(c1ccc(F)cc1)C(C#N)=C(/N=C/c1ccc(Cl)cc1)O3 (centres undefined)
growth: 21.5% (inactive)
--
Compound: CCOC(=O)c1c(NCC(=O)Nc2cccc([N+](=O)[O-])c2)sc(C(C)=O)c1C
growth: -14.1% (active)
--
Compound: COc1ccc2[nH]cc(-c3nn4cc(-c5ccncc5)nc4s3)c2c1
growth: 43.8% (inactive)
--
Compound: CC(=O)C1=C(C)NC(NNc2ccccc2)=NC1c1ccc([N+](=O)[O-])cc1 (centres undefined)
growth: 92.4% (inactive)
--
Compound: CC1=C(C)C(=O)C(Nc2cccc(C)c2)=C(Br)C1=O
growth: 35.8% (inactive)
--
Compound: COc1ccc(OC)c(CCn2cncc2-c2c[nH]c3ccc(Cl)cc23)c1
growth: 33.9% (inactive)
--
Compound: O=C(Nc1ccc(N2CCOCC2)cc1)Nc1ccc2c(ccn2C(=O)c2cccc(F)c2)c1
growth: 58.5% (inactive)
--
Compound: CN(C)c1ccc(/C=N/Nc2nc(N/N=C/c3ccc(N(C)C)cc3)nc(N3CCCCC3)n2)cc1
growth: 32.6% (inactive)
--
Compound: O=C(CSc1nnc(-c2ccc(Cl)cc2)n1-c1ccccc1)Nc1cccc(F)c1
growth: 40.5% (inactive)
--
Compound: CCCNNC(=O)c1ccc(-c2ccc(NC(=O)CCCCCCC(=O)N[C@H](C(=O)N3C[C@H](O)C[C@H]3C(=O)N[C@@H](C)c3ccc(-c4scnc4C)cc3)C(C)(C)C)cc2)cc1
growth: 2.23% (active)
--
Compound: Brc1ccc(-c2cc(-c3ccc4c(c3)OC=CO4)n[nH]2)s1
growth: 93.6% (inactive)
--
Compound: CC(Nc1ncnc2ccc(-c3cnc(N)nc3)cc12)c1ccccc1 (centres undefined)
growth: 28.2% (inactive)
--
Compound: NS(=O)(=O)c1ccc(Nc2nc(N/N=C/c3ccc4c(c3)OCO4)nc(Nc3ccccc3)n2)cc1
growth: 54.3% (inactive)
--
Compound: O=S(=O)(Oc1ccc(-c2cn3ccoc3n2)cc1)c1cccc(C(F)(F)F)c1
growth: 94.4% (inactive)
--
Compound: O=C(N/N=C/c1cc2ccccc2nc1Cl)c1cc(-c2nc3ccccc3[nH]2)nc2ccccc12
growth: 82.7% (inactive)
--
Compound: Cc1cc(=O)oc2cc(OCCCOc3ccc(/C=C/C(=O)Nc4ccc(Br)cc4)cc3)ccc12
growth: 75.6% (inactive)
--
Compound: N/C(=N\C(N)=N\c1nc2ccccc2s1)c1ccc(Cl)cc1
growth: 57% (inactive)
--
Compound: CCOC(=O)C(=O)Nc1ccc2c(ccn2C(=O)c2cccc(F)c2)c1
growth: 101% (inactive)
--
Compound: CC(=C(c1ccc(OCCN2CCCC2)cc1)c1ccc(OCCN2CCCC2)cc1)c1ccc(Cl)cc1
growth: -54.8% (active)
--
Compound: O=C(CSc1nc2ccccc2c(=O)n1-c1ccc(Cl)c(Cl)c1)Nc1ccc(S(=O)(=O)Nc2ccc(Cl)nn2)cc1
growth: 106% (inactive)
--
Compound: CCc1cc2c(cc1Cl)nc1c(=O)[nH]c(=O)nc-1n2CCOCC(C)C
growth: 66.6% (inactive)
--
Compound: CN1CCN(Cc2ccc(NC(=O)c3cncc(C#Cc4cnc5ccc(NCCO)nn45)c3)cc2C(F)(F)F)CC1
growth: -15.2% (active)
--
Compound: O=c1oc2ccc(-c3ccc(F)cc3F)cc2c(=O)n1-c1ccc(Br)cc1F
growth: 31.6% (inactive)
--
Compound: CCOC(=O)Nc1ccc2c(ccn2C(=O)c2cccc(F)c2)c1
growth: 24.6% (inactive)
--
Compound: CCOC(=O)c1cccc(NC2=C(Cl)C(=O)C(C)=C(C)C2=O)c1
growth: 26.8% (inactive)
--
Compound: O=C(/C=C/C=C/c1csc(Br)n1)NO
growth: 60.7% (inactive)
--
Compound: N#Cc1c(-c2cccs2)cc(-c2cnccn2)nc1SCC(=O)N/N=C/c1cccs1
growth: 25.1% (inactive)
--
Compound: Cc1ccc2c(n1)C(=O)C(Cl)=C(Nc1ccc(C(F)(F)F)cc1)C2=O
growth: -8.81% (active)
--
Compound: CC1=C(C)C(=O)C(Nc2ccc(C)c(C)c2)=C(Br)C1=O
growth: 29.8% (inactive)
--
Compound: COC(=O)c1ccc(NC2=C(Cl)C(=O)c3nc(C)ccc3C2=O)cc1
growth: 36.9% (inactive)
--
Compound: CCNCCOc1ccc(/C(=C(/CC)c2ccc(Cl)cc2)c2ccc(OCCCN(C)C)cc2)cc1
growth: -36.2% (active)
--
Compound: Cc1nc(N)sc1-c1csc(Nc2ccc(C(F)(F)F)cc2)n1
growth: 26.6% (inactive)

---

# Tested on: 786-0 renal
# Procedure details: NCI-60 one-dose screen, 48 h (100 = growth as untreated, 0 = no growth, -100 = all killed)
# Test conditions: 10 µM unless noted
Compounds without any hit were thinned out: in the full panel of roughly 83,000, 20% have a hit.
// class assignment uses growth with these ranges: bottom bin = under -20%, middle bin = from -20% up to 70%, top bin = 70% and over

Molecule: CC1(C)CC[C@]23CC[C@]4(C)[C@H](CC[C@@H]5[C@@]6(C)CC[C@H](N)C(C)(C)[C@@H]6CC[C@]54C)[C@H]2[C@H]1OC3
Test system: 786-0 renal
Cat: bottom bin
//
Molecule: COc1ccc(-c2c3c(cn2Cc2cccc(OC)c2)-c2oncc2CCC3)cc1
Test system: 786-0 renal
Cat: top bin
//
Molecule: O=C(CCCCCCNC(=O)C(O)(O)C(F)(F)F)Nc1ccc(-c2ccccc2)cc1
Test system: 786-0 renal
Cat: middle bin
//
Molecule: CC(Nc1ncnc2ccc(-c3cnc(N)nc3)cc12)c1ccccc1 (centres undefined)
Test system: 786-0 renal
Cat: middle bin
//
Molecule: CN(C)CCCOc1ccc(C(=C(c2ccccc2)C2CCCC2)c2ccc(OCCCN(C)C)cc2)cc1
Test system: 786-0 renal
Cat: bottom bin
//
Molecule: COc1cc2c3c(cc4c5c(ccc4c3c1OC)OCO5)N(CCN(C)C)C2=O
Test system: 786-0 renal
Cat: middle bin
//
Molecule: C#CCN(C)CCCOc1ccc(NC(=O)CCCCCCC(=O)NO)cc1Cl
Test system: 786-0 renal
Cat: middle bin
//
Molecule: CNC(=O)c1cc(-c2ccc(NC(=S)Nc3cccc(C(F)(F)F)c3)cc2)nc2cccnc12
Test system: 786-0 renal
Cat: top bin

---

# Tested on: HCT-15 colon
# Procedure details: NCI-60 one-dose screen, 48 h (100 = growth as untreated, 0 = no growth, -100 = all killed)
# Test conditions: 10 µM unless noted
This is part of a sample that, as a whole, favours compounds with a hit. Of some 83,000 tested, about 20% had one in any assay. Active and inactive are the calls of the source. How the source made its calls: active means growth percent below 10; inactive means the rest.

Smiles data: COc1ccc(/C(=N\NC(N)=S)c2ccc(Cl)cc2)cc1OC
Test system: HCT-15 colon
growth: 16% (inactive)
--
Smiles data: Cc1cc(NS(=O)(=O)c2ccc(NC(=O)CSc3nc4ccccc4c(=O)n3-c3ccccc3)cc2)no1
Test system: HCT-15 colon
growth: 106% (inactive)
--
Smiles data: CC(C)NC(=O)c1cc(-c2ccc(NC(=O)Nc3ccc(F)cc3)cc2)nc2cccnc12
Test system: HCT-15 colon
growth: 99.5% (inactive)
--
Smiles data: COc1ccc(-c2nc(C#N)c(N3CCC(S(=O)(=O)N4CCOCC4)CC3)o2)cc1
Test system: HCT-15 colon
growth: 105% (inactive)
--
Smiles data: O=C(/C=C/Nc1ccc(S(=O)(=O)Nc2ncccn2)cc1)c1ccc(N=Cc2c(O)[nH]c3ccccc23)cc1
Test system: HCT-15 colon
growth: 104% (inactive)
--
Smiles data: O=C1C(SCc2ccccc2)=C(Cl)CN1c1ccc(Cl)cc1
Test system: HCT-15 colon
growth: 88.6% (inactive)
--
Smiles data: CC(C)[C@H]1c2[nH]c3ccccc3c2C[C@H]2C(=O)N(CCCCCCC(=O)NO)CC(=O)N12
Test system: HCT-15 colon
growth: 97.5% (inactive)
--
Smiles data: CN1CCN(CC#CCn2c3c(c4ccccc42)C[C@]2(C)[C@H]4CC=C5[C@@H]6CC(C)(C)CC[C@]6(C(=O)N6CCOCC6)CC[C@@]5(C)[C@]4(C)CC[C@H]2C3(C)C)CC1
Test system: HCT-15 colon
growth: 28.4% (inactive)
--
Smiles data: N#Cc1c(-c2cccs2)c(C#N)c(=O)n(Cc2nc3ccccc3[nH]2)c1N
Test system: HCT-15 colon
growth: 98.2% (inactive)
